// data source = ChEMBL document CHEMBL6071124

Experiment Summary: AUC in rat at 10 mg/kg, po
Assay type: ADME, organism-based
Experimental Parameters: in vivo
Assay Metric: AUC (µM·h)
Write it as a number; the unit µM·h goes unstated.

Problem: Need AUC of `Cc1nc(CNC(=O)NCc2ncnn2-c2ccc3cccnc3c2)n(-c2ccc(Cl)c(F)c2)n1` , thanks.
Solution: 2.9

* * *

Test System: aromatase (Homo sapiens, UniProt P11511)
Sequence (P11511 whole entry): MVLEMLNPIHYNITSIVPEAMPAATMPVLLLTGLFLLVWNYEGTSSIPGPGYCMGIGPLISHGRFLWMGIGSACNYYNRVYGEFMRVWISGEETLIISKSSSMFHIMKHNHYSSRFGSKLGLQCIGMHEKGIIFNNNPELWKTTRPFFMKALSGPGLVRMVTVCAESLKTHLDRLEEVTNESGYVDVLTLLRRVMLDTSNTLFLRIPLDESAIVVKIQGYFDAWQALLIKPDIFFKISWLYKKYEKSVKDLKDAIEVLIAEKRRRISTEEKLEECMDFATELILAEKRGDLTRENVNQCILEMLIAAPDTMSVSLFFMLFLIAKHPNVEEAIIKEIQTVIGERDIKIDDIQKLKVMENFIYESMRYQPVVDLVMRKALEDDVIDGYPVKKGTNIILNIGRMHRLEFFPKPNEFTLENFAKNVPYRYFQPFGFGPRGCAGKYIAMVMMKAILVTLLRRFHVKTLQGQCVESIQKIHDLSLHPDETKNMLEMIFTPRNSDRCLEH
Experiment Summary: Inhibition of aromatase (unknown origin) at 10 uM relative to control
Assay Metric: inhibition at 10 µM (%)
Give the value in % but do not write % after it.

Problem: Consider the compound `Cc1nc(CNC(=O)NCc2ncnn2-c2ccc3cccnc3c2)n(-c2ccc(Cl)c(F)c2)n1` and give its measured inhibition at 10 µM.
Solution: 17
